Form: system (Cytochrome P450 2D6 (Homo sapiens, UniProt P10635)), quantity (AC50), values below.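 Further: CYP2D6 member of a cytochrome P450 panel assay.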

MOLECULE	MEASURED ON	AC50
Cc1ccc(-c2cnc(NC(=O)CCC(=O)N3CCCCC3)n2C)cc1	Cytochrome P450 2D6 (Homo sapiens, UniProt P10635)	14.1 µM (inconclusive)
CCn1c(N)nc2ccccc21	Cytochrome P450 2D6 (Homo sapiens, UniProt P10635)	17.8 µM (inconclusive)
O[C@@H](c1ccccc1)C1CCN(CCc2ccccc2)CC1	Cytochrome P450 2D6 (Homo sapiens, UniProt P10635)	25.1 µM (inconclusive)
COc1ccc(C(C(=O)NCc2ccccc2)N(Cc2cccs2)C(=O)c2cnccn2)cc1 (stereo not given)	Cytochrome P450 2D6 (Homo sapiens, UniProt P10635)	31.6 µM (inconclusive)
C=CCn1c(C)c(C(C)=O)c(N2CCN(c3ccccc3)CC2)nc1=S	Cytochrome P450 2D6 (Homo sapiens, UniProt P10635)	22.4 µM (inconclusive)
COc1ccc(Oc2ncc3nc(C)c(=O)n(Cc4cccs4)c3n2)cc1	Cytochrome P450 2D6 (Homo sapiens, UniProt P10635)	25.1 µM (inconclusive)
O=C1OCC(c2ccccc2)=C1c1ccc(S(=O)(=O)N2CCOCC2)s1	Cytochrome P450 2D6 (Homo sapiens, UniProt P10635)	31.6 µM (inconclusive)
N[C@@H]1C[C@H]1c1ccccc1.N[C@H]1C[C@@H]1c1ccccc1 [TRANYLCYPROMINE]	Cytochrome P450 2D6 (Homo sapiens, UniProt P10635)	31.6 µM (inconclusive)
CCCC(=O)Nc1ccc(C(=O)Nc2cc(C(F)(F)F)ccc2Cl)cc1	Cytochrome P450 2D6 (Homo sapiens, UniProt P10635)	8.91 µM (inconclusive)
COc1ccc(-c2cc(C(F)(F)F)nc(NC3CCCC3)n2)cc1OC	Cytochrome P450 2D6 (Homo sapiens, UniProt P10635)	20 µM (inconclusive)

###

# MEASURED ON: Polyadenylate-binding protein 1 (Homo sapiens, UniProt P11940)
# Sequence (P11940 whole entry): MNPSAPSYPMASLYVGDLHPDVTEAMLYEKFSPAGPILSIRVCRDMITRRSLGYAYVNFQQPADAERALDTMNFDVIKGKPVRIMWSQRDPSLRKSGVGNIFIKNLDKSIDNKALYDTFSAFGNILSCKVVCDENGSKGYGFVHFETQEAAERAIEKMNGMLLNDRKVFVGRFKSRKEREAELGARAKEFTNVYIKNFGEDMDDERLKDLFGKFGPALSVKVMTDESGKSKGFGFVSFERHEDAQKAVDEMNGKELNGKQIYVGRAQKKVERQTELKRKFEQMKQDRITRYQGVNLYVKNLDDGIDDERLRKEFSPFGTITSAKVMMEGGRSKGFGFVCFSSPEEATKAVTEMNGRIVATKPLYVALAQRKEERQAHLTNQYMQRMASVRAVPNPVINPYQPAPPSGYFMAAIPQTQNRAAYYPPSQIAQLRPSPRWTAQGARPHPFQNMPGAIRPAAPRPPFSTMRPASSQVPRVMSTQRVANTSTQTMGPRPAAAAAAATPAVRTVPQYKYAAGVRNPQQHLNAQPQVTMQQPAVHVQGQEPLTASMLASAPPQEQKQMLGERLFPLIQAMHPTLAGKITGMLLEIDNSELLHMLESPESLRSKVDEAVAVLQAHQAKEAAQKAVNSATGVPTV
# PROTOCOL NOTES: PABP1 MLLE–PAM2 binding inhibitor potency, dose response, biochemical, fluorescence polarization, FITC-PAM2 peptide (AID 602259)
# Format: functional
# CONDITION CONTEXT: read-out: IC50_Mean
The source made the active and inactive calls.
IC50 listing for selected compounds.
METRIC: IC50

STRUCTURE SMILES	RECORDED VALUE
Cc1c(/N=N/c2c(-c3ccc([N+](=O)[O-])cc3)[nH]n(C(N)=S)c2=O)cccc1[N+](=O)[O-]	> 66 µM (inactive)
Nc1cccnc1Sc1cccc(Cl)c1	> 66 µM (inactive)
NC(=O)c1cc2c3ccccc3ccn2c1-c1ccccc1	32.2 µM (inactive)
Cc1ccc(OC(=O)COc2ccccc2C)c(-n2nc3ccccc3n2)c1	> 66 µM (inactive)
CCN(CC)S(=O)(=O)c1ccc(C)c(NC(S)=Nc2cccc(S(=O)(=O)N3CCCCCC3)c2)c1	> 66 µM (inactive)

###

# MEASURED ON: Trace amine-associated receptor 1 (Homo sapiens, UniProt Q96RJ0)
# Sequence (Q96RJ0 whole entry): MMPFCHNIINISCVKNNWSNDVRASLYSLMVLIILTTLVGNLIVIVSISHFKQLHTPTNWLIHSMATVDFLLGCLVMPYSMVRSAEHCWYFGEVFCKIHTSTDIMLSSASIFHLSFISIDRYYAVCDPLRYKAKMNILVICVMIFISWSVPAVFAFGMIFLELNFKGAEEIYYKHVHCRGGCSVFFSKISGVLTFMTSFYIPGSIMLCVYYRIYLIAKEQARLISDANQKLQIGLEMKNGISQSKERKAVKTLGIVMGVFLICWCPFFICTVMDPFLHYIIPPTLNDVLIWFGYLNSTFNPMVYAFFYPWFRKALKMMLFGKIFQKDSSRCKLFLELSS
# PROTOCOL NOTES: Counterscreen for agonists of the human trace amine associated receptor 1 (hTAAR1): Fluorescence-based cell-based high throughput dose response assay to identify hTAAR1 agonist that also desensitize TAAR1 receptor response.
# Type: functional
Where a name gives a salt, the structure may show the parent alone. Active and inactive are the calls of the source.
Outcomes: YES (active), NO (inactive)

COMPOUND	ASSIGNED CLASS
CN(C)c1ccc(/C=N/CC2COc3ccccc3O2)cc1 (centres undefined)	NO
S=C1SCN(CCc2ccccc2)CN1CCc1ccccc1	YES
NCCc1nc(-c2ccccc2)cs1	NO
O=C(CCN1CCC(c2ccccc2)C1)c1ccc2c(c1)OCCO2 (centres undefined) [PROROXAN HYDROCHLORIDE]	YES

###

# MEASURED ON: Prothrombin (Homo sapiens, UniProt P00734)
# PROTOCOL NOTES: Thrombin 1536 HTS Dose Response Confirmation. [Related pubchem assays: 1046 (Thrombin 1536 HTS; hits were confirmed in this assay)]
# Format: functional
Activity calls are given as the source filed them.

STRUCTURE SMILES	IC50
COc1ccc(-n2nc(C(=O)c3cccs3)cc(-c3nc4ccccc4[nH]3)c2=N)cc1	> 50 µM (not active)
CCCCOC(=O)Sc1nc2ccccc2o1	3.11 µM (active)
COc1ccccc1CN(CC(=O)NCc1ccco1)C(=O)CNS(=O)(=O)c1ccc(C)cc1	7.63 µM (active)
CCN(CC)CCCN(Cc1cc2cc3c(cc2[nH]c1=O)OCO3)C(=S)Nc1ccccc1OC	> 50 µM (not active)

###

# MEASURED ON: Dual specificity tyrosine-phosphorylation-regulated kinase 1B (Homo sapiens, UniProt Q9Y463)
# Sequence (Q9Y463 whole entry): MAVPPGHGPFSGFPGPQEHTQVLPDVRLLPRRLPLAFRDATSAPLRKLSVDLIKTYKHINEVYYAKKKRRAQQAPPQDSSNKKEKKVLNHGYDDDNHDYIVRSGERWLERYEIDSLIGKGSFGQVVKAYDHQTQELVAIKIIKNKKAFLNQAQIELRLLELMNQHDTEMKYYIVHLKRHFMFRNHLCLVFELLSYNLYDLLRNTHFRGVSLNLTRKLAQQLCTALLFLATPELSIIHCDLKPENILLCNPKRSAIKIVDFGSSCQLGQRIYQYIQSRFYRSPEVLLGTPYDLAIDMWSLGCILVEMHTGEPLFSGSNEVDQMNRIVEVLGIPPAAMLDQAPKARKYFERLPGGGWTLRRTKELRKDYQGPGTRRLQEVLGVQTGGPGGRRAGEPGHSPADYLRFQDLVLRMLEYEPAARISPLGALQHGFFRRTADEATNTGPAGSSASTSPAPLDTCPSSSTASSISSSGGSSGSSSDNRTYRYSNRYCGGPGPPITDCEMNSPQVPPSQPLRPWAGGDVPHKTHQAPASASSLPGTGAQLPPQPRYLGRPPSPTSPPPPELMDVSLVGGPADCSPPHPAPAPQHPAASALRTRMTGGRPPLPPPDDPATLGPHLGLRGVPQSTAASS
# PROTOCOL NOTES: Navigating the Kinome. Panel member name: DYRK1B
# Assay type: functional
Calls of active or inactive are those of the source.
Outcomes: active, inactive

MOLECULE	ASSIGNED CLASS
O=C(Nc1cccc(C(F)(F)F)n1)Nc1ccnc2cc(Cl)ccc12	inactive
O=c1[nH]c2cc(Br)cnc2[nH]1	active
O=C(Nc1cccc(C(F)(F)F)n1)Nc1ccnc2cc(OC(F)F)ccc12	inactive
CCC1CC(NS(=O)(=O)C2CC2)CC1c1ncc2cnc3[nH]ccc3n12 (centres undefined)	inactive

###

# MEASURED ON: Cyclin-dependent kinase 9 (Homo sapiens, UniProt P50750)
# Sequence (P50750 whole entry): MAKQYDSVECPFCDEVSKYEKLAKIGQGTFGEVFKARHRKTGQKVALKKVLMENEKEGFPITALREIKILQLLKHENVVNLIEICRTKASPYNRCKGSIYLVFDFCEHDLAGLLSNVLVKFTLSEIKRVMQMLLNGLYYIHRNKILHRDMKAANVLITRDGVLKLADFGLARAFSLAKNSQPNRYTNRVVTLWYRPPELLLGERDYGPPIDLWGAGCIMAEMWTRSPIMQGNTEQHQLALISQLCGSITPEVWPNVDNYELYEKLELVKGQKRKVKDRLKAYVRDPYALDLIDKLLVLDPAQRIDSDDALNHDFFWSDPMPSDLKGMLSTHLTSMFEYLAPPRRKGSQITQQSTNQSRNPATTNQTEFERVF
# Assay type: functional
Calls of active or inactive are those of the source.
Outcomes: class 1 for active, class 0 for inactive

COMPOUND	ASSIGNED CLASS
CCC1CC(NS(=O)(=O)C2CC2)CC1c1ncc2cnc3[nH]ccc3n12 (centres undefined)	class 0
O=C(Nc1cccc(C(F)(F)F)n1)Nc1ccnc2cc(OC(F)F)ccc12	class 0
O=C(Nc1cccc(C(F)(F)F)n1)Nc1ccnc2cc(Cl)ccc12	class 0
O=c1[nH]c2cc(Br)cnc2[nH]1	class 1

###

# MEASURED ON: Microphthalmia-associated transcription factor (Homo sapiens, UniProt O75030)
# Sequence (O75030 whole entry): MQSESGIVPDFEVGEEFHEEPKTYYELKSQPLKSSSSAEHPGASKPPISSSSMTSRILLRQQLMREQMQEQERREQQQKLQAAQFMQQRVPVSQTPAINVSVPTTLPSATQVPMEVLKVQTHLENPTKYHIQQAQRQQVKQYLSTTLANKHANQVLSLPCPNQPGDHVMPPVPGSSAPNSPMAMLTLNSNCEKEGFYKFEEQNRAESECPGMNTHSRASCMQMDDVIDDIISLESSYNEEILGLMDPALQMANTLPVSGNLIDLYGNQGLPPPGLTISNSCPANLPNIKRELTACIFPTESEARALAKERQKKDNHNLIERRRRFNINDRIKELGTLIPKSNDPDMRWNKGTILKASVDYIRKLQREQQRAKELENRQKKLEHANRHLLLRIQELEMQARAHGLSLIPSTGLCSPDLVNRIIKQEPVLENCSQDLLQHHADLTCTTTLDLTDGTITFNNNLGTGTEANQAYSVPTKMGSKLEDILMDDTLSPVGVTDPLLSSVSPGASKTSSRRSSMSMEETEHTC
# PROTOCOL NOTES: TRPM1 promoter luciferase signal decrease, dose response, MITF inhibitor project, cell-based, SK-MEL-5, cherry-picked, set 3 (AID 493073);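 further: SK-MEL-5 melanoma cells with luciferase driven by the MITF target TRPM1 promoter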
# Type: functional
The source made the active and inactive calls.

COMPOUND	AC50
COc1ccc(-c2cc(-c3ccccc3)c(C#N)c([S+](C)[O-])n2)cc1 (centres undefined)	11.8 µM (active)
O=[N+]([O-])c1cccc2c(N3CCCC3)ccnc12	2.47 µM (active)
CN(C)c1ccc(/C=C(\C#N)c2ccccn2)cc1	6.32 µM (active)
CCOC(=O)/C=c1/s/c(=C/c2ccc3cc(OC)ccc3c2)c(=O)n1CC(=O)NCC1CCCO1 (centres undefined)	6.79 µM (active)

###

# MEASURED ON: Disintegrin and metalloproteinase domain-containing protein 17 (Homo sapiens, UniProt P78536)
# Sequence (P78536 whole entry, the tested form may be a part): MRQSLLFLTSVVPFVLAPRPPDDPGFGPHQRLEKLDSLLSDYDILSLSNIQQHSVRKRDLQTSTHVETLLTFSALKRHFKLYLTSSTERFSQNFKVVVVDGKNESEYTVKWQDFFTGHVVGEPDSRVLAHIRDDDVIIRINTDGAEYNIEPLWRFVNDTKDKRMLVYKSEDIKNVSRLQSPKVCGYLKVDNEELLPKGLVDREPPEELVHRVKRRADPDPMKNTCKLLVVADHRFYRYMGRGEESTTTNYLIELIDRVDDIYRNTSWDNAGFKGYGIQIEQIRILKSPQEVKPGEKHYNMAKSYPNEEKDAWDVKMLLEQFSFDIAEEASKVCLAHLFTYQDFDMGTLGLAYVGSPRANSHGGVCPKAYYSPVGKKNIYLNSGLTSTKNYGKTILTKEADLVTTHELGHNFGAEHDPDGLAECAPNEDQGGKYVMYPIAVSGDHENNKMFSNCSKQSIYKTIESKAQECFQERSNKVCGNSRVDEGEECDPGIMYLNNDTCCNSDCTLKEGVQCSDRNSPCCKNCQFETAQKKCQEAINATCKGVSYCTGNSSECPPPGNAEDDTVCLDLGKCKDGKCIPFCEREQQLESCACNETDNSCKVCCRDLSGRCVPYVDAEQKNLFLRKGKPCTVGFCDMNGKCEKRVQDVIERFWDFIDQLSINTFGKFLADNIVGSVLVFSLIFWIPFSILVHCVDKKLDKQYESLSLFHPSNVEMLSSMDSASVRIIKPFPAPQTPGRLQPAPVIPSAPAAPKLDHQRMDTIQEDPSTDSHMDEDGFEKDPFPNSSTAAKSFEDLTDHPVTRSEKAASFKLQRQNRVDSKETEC
# PROTOCOL NOTES: ADAM17 protease inhibitors, dose response, counter-screen for ADAM10 exosite inhibitor project, biochemical, quenched FRET substrate (AID 743253)
Active and inactive are the calls of the source.

COMPOUND	IC50
O=C1OCCN1C(=O)[C@H]1[C@H](c2ccc([N+](=O)[O-])cc2)C(c2ccc(F)cc2)=NN1c1ccc(Br)cc1	> 69.5 µM (inactive)
OC(c1ccccc1)(c1nc(-c2cccc(C(F)(F)F)c2)cs1)C(F)(F)F (stereo not given)	> 69.5 µM (inactive)
CCOc1ccc(CCN2C(=S)N([C@@H](Cc3ccc(O)cc3)CN3CCC[C@@H]3CN3C(=S)NC[C@@H]3CC(C)C)C[C@@H]2Cc2ccccc2)cc1	> 69.5 µM (inactive)
CCOC(=O)C1=C(C)N(Cc2ccccc2)C(=O)NC1c1ccccc1OS(=O)(=O)c1ccccc1[N+](=O)[O-] (stereo not given)	> 69.5 µM (inactive)
CCc1nc2ccc(C(=O)Nc3cccc(OC)c3)cn2c1N(CC)Cc1cccc(Br)c1	> 69.5 µM (inactive)

###

Ki listing for selected compounds.
# MEASURED ON: Dual specificity mitogen-activated protein kinase kinase 1 (Homo sapiens, UniProt Q02750)
# Sequence (Q02750 whole entry): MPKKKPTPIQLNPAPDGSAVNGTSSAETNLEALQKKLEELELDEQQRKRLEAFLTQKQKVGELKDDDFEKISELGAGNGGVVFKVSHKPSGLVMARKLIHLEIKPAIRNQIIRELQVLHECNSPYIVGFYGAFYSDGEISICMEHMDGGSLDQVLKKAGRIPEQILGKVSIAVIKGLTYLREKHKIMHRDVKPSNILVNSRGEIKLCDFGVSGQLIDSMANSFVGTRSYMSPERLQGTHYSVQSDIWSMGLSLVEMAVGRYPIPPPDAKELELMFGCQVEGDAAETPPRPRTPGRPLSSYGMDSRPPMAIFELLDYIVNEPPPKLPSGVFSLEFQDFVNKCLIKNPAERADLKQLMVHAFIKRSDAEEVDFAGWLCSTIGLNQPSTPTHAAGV
# PROTOCOL NOTES: Navigating the Kinome. Panel member name: MAP2K1
# Format: functional
Calls of active or inactive are those of the source.

COMPOUND	Ki
O=C(Nc1cccc(C(F)(F)F)n1)Nc1ccnc2cc(OC(F)F)ccc12	> 3.16 µM (inactive)
O=c1[nH]c2cc(Br)cnc2[nH]1	50.1 µM (active)
O=C(Nc1cccc(C(F)(F)F)n1)Nc1ccnc2cc(Cl)ccc12	3.16 µM (active)
CCC1CC(NS(=O)(=O)C2CC2)CC1c1ncc2cnc3[nH]ccc3n12 (centres undefined)	> 3.16 µM (inactive)

Reference for the values: ChEMBL document CHEMBL1201862
